Reported IC50 by item:
system.name: C215S PTP1B (Homo sapiens, UniProt P18031, C215S)
Construct: PTP1B proteins (wild type and mutant forms) comprising amino acids 1-321 were expressed in E. coli; made in house; host or cells: E. coli
Sequence (P18031 1-321 C215S): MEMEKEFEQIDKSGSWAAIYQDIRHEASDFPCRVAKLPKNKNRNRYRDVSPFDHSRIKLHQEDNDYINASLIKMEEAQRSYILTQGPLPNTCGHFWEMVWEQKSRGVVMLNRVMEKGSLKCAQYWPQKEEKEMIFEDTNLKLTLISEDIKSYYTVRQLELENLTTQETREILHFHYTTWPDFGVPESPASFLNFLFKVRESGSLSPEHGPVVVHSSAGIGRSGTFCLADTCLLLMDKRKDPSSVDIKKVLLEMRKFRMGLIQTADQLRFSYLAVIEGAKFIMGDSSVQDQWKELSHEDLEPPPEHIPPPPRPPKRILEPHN
test: Inhibition of fluorescent EGF receptor peptide binding to CS substrate binding mutant (FP)
conditions.used: Table 3; fluorescein-labeled EGF receptor peptide
Reply with a number, then the unit it belongs to.

[[record]]
molecule = "N[C@@H](Cc1ccc(OP(=O)(O)O)cc1)C(=O)O"
result = "150 µM"


Qu. I have this molecule here, OO [H2O2, hydrogen peroxide] , and I need its recorded IC50.
Ans. 250 µM

* * *

system.name: D181A PTP1B (Homo sapiens, UniProt P18031, D181A)
Construct: PTP1B proteins (wild type and mutant forms) comprising amino acids 1-321 were expressed in E. coli; made in house; host or cells: E. coli
Sequence (P18031 1-321 D181A): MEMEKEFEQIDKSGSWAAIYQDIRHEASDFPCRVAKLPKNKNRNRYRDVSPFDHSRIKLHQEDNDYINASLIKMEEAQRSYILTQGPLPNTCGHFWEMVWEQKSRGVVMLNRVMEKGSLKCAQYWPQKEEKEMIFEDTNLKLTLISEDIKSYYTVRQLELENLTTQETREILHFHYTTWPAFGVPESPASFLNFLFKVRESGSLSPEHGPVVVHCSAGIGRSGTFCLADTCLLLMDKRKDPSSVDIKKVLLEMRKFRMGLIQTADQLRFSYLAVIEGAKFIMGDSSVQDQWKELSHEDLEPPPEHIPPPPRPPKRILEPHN
test: Inhibition of fluorescent EGF receptor peptide binding to DA substrate binding mutant (FP)
conditions.used: read-out: IC50 for inhibition of the DA substrate binding mutant
pIC50: −log10 of the molar value.
endpoint.name: pIC50

Qu. Query (compound): OO [H2O2, hydrogen peroxide] ; field requested: pIC50
Ans. ~5.00

// provenance: patent US20070015231A1
